tested on: OCT2/MATE1/MATE2-K; assay: in vitro; details: human, Kidney-Chip (Proximal Tubule), probe Meformin (so in the source); metformin)
endpoint: IC50 (µM)
One number for each entry, in µM.

Give the measured IC50 of CN/C(=N/CCSCc1nc[nH]c1C)NC#N [Cimetidine] .
4.41

###

experiment: in vitro; settings: human, Kidney-Chip Efflux Ratio
Task for the reader: assign each of the following compounds its reported efflux ratio.

compound_string=Nc1ccc(C(=O)NCC(=O)O)cc1 obs_value=4.84

Item Nc1ncnc2c1ncn2CCOCP(=O)(O)O has what recorded efflux ratio?
2.01

###

system: OCT1/MATE1/MATE2-K; experiment: in vitro; conditions: human, Kidney-Chip (Proximal Tubule), probe TEA
endpoint: pIC50
Answers are plain numbers, as −log10 of the molar value.

Item: CN/C(=N/CCSCc1nc[nH]c1C)NC#N [Cimetidine] Test system: OCT1/MATE1/MATE2-K Read-out: pIC50 Value: ?
5.50

###

test system: P-gp (digoxin); MATE1/MATE2-K (metformin); OAT1 (PAH); test: in vitro
endpoint: efflux ratio

Could you tell me which efflux ratio is on file for Nc1ccc(C(=O)NCC(=O)O)cc1 ?
1.37

###

assay: in vitro; conditions: human, efflux ratio
endpoint: efflux ratio

efflux ratio lookup needed for Nc1ccc(C(=O)NCC(=O)O)cc1 [PAH, p-aminohippuric acid] , thanks.
2.4 to 2.7

###

assay: Creatinine and PAH secretion/transport in PT Kidney-Chip; format: in vitro ADME, human; details: human, Proximal Tubule Kidney-Chip; read-out: recovery of compound in the chip
endpoint: recovery

molecule="Nc1ccc(C(=O)NCC(=O)O)cc1 [PAH, p-aminohippuric acid]" obs_value=~100%

Then this molecule:
Would you mind telling me what recovery value was observed for CN1CC(=O)NC1=N [Creatinine, 2-amino-1-methyl-5H-imadazol-4-one] ?
~100%
